experiment: Cytotoxicity against African green monkey Vero cells assessed as cell viability at 0.02 ug/ml after 72 hrs by CCK8 assay (reference value: 100%); assay type: cell-based; settings: chlorocebus sabaeus, read-out: Activity
For each record, write down the corresponding viability at 72 h, 0.02 ug/ml.
Note: unit % is implicit; provide only the numeric part.

# viability at 72 h, 0.02 ug/ml (compound: O=C(N/N=C/c1ccc(CSc2nc3ccccc3[nH]2)cc1)c1ccncc1 ) is 116

// viability at 72 h, 0.02 ug/ml value for O=C(N/N=C/c1ccc(CSc2nc3ccccc3s2)cc1)c1ccncc1 : 103

// recorded viability at 72 h, 0.02 ug/ml for COc1cc(/C=N/NC(=O)c2ccncc2)ccc1O [FTIVAZIDE] : 105

The measured viability at 72 h, 0.02 ug/ml associated with O=C(N/N=C/c1ccc(CSc2nc3ccccc3o2)cc1)c1ccncc1 reads 127

The reported measurements were obtained from ChEMBL document CHEMBL4261527.
